Where do the numbers come from? From patent US20150152192A1.

Target desc: T1, Ang2 with P452 mutated with alanine, tagged with FLAG (human, UniProt O15123 19-496, limits assumed)
T1 sequence: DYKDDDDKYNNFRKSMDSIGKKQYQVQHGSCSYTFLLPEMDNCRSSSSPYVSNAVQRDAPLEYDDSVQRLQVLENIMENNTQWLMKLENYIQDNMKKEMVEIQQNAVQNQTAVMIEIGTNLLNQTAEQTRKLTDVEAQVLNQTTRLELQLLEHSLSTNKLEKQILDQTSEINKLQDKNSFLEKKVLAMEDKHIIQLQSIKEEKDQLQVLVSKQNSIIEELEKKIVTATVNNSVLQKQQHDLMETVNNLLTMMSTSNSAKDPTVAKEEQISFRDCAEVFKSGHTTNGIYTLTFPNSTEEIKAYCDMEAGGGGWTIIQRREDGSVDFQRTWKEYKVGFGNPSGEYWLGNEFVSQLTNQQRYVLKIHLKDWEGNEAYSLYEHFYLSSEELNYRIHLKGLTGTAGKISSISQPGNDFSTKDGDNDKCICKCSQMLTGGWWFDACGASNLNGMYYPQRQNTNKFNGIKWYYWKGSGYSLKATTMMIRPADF
Assay: ELISA, scFv coated, 250 ng FLAG-tagged Ang2 mutant, anti-FLAG-HRP
Exercise: state measured Relative binding (%) with Mutant Ang2 compared to the binding with native Ang2 for each of the binders provided.
Give the value in % but do not write % after it.

Give the measured Relative binding (%) with Mutant Ang2 compared to the binding with native Ang2 of SAIT-ANG-2-AB-3-D3 (scFv form) (scFv, V domains shown, scFv from a phage display library) VH: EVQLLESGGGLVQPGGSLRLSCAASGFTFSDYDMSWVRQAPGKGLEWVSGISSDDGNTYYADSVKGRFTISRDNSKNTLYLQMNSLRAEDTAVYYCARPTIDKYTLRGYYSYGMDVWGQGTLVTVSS VL: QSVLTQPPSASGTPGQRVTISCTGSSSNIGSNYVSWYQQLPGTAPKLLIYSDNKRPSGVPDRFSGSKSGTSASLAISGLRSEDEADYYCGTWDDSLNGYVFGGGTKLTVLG .
97.3

Give the measured Relative binding (%) with Mutant Ang2 compared to the binding with native Ang2 of SAIT-ANG-2-AB-8-A5 (scFv form) (scFv, V domains shown, scFv from a phage display library) VH: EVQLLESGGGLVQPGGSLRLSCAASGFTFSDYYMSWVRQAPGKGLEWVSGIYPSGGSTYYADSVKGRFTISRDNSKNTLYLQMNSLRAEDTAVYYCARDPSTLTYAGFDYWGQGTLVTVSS VL: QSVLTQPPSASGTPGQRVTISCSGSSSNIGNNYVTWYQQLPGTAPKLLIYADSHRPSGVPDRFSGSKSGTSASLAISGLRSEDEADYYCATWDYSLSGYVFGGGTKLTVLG .
86.5

Give the measured Relative binding (%) with Mutant Ang2 compared to the binding with native Ang2 of SAIT-ANG-2-AB-7-C9 (scFv form) (scFv, V domains shown, scFv from a phage display library) VH: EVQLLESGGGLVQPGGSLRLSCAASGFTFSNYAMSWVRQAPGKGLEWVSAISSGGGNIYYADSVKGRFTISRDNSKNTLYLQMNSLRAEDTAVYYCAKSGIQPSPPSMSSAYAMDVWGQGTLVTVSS VL: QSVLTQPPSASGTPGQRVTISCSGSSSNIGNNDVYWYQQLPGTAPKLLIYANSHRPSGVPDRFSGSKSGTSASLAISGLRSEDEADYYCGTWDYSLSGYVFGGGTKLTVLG .
85

Give the measured Relative binding (%) with Mutant Ang2 compared to the binding with native Ang2 of SAIT-ANG-2-AB-4-C11 (scFv form) (scFv, V domains shown, scFv from a phage display library) VH: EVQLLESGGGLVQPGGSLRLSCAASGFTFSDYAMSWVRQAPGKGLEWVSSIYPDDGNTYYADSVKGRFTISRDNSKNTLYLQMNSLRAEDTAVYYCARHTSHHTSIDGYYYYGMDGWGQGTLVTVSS VL: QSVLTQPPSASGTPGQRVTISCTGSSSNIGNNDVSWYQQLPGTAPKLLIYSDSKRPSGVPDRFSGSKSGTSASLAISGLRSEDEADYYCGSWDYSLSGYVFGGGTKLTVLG .
70

Give the measured Relative binding (%) with Mutant Ang2 compared to the binding with native Ang2 of SAIT-ANG-2-AB-4-F5 (scFv form) (scFv, V domains shown, scFv from a phage display library) VH: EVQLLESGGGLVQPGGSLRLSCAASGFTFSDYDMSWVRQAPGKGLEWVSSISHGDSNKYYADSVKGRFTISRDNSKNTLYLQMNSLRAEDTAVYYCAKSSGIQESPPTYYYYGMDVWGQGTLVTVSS VL: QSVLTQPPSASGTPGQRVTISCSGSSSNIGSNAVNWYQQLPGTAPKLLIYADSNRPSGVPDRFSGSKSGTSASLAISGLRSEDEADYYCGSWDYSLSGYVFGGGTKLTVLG .
15
